Tested on: SEM cells
test: cell viability relative to DMSO control; higher = less cytotoxic
condition_set: HPLM + 10% dialyzed FBS; 48 h; 46.1 µM
Give measured cell viability for each item. Keep answers brief.

Illustrative cases are given below, each with its answer.
NC/1=N/C(=O)N(/C=C1F)[C@H]2CS[C@H](CO)O2 = 148%
CO/C1=C/C(C)=C\[C@@H](C)[C@@H](O)[C@@H](C)C/C(C)=C\C=C/[C@H](OC)[C@@H]([C@@H](C)[C@@H](O)[C@H](C)[C@@]2(O)C[C@@H](O)[C@H](C)[C@@H](C(C)C)O2)OC1=O = 29.7%

Give cell viability for all compounds that follow.
1. CC(C)c1cnn2c(NCc3ccccc3)cc(NCCCCCCN)nc12
2. CCOC(=O)c1cncn1[C@H](C)c1ccccc1
3. CN[C@@H](C)C(=O)N[C@H]1CN(C(=O)CC(C)C)CC[C@H]2CC[C@@H](C(=O)NC(c3ccccc3)c3ccccc3)N2C1=O

84.9%
89.8%
41%
